# Tested on: WT Max(13-93) synthetic (M65Nle)
# protocol.description: PBM 8-mer E-score (E-score (rank enrichment, -0.5 to 0.5)); higher = stronger preferential binding
Whole data set: some 33,000 sequences, median “E-score (rank enrichment, -0.5 to 0.5)” near -0.0075, cut for the highest 2% near 0.23. Only a selection was taken, and the highest values are over-represented in it overall.

| seq | PBM 8-mer E-score |
| --- | --- |
| GTGAGTCA | -0.117 |
| GTATGTCA | 0.246 |
| GCACATCC | -0.00788 |
| AATTATGT | 0.178 |
| ATATGTAC | 0.0738 |
| ACGTGTGA | 0.192 |
| GATGTGCC | -0.0199 |
| ATCTAATG | -0.0696 |
| ACGGGCTC | -0.297 |
| CCTATACG | 0.0369 |
| AAATCAAC | 0.129 |
| CATATAAA | 0.295 |
| AAACTATA | 0.144 |
| AAAACAGC | 0.0957 |
| AGTGACCA | -0.0103 |
| CCACATGG | 0.366 |
| ATTAACAA | 0.289 |
| CTGTGCCC | -0.035 |
| GTGAACAA | 0.114 |
| ACACATGC | 0.23 |
| CGTCCCGA | -0.209 |
| TATGTGCA | 0.16 |
| CTATGTCA | 0.0959 |
| ACGTAACC | 0.109 |
| ATTAACTC | 0.16 |
| AATGCCGC | -0.0772 |
| AAATATGA | 0.261 |
| GCTACTTA | 0.0733 |
| GACATATA | 0.0052 |
| CGCATGCA | 0.175 |
| CAGCATAG | -0.0673 |
| CAGCATGA | 0.128 |
| CATGTGCG | 0.296 |
| ATACCACA | 0.159 |
| GTTAACAA | 0.138 |
| GATATAAA | 0.0778 |
| AACGAGCG | -0.0104 |
| AGCATGCA | 0.335 |
| CCGTGAGC | -0.142 |
| CGGCATGC | 0.124 |
| ATATGTAA | 0.239 |
| CAAACACA | 0.243 |
| GTATGTTA | 0.164 |
| CCATCACC | 0.144 |
| TGCATGCA | 0.201 |
| AATATAAT | 0.156 |
| CAAACAGG | 0.0276 |
| GAGCATGC | 0.249 |
| AGTTGCTC | -0.143 |
| TAAACACA | 0.182 |
| AAACCACA | 0.223 |
| CTAGACGC | -0.0678 |
| CTAATCCC | 0.144 |
| GCACATGC | 0.251 |
| CTTAACAC | 0.135 |
| CCCACATC | -0.1 |
| CAAACAGC | 0.244 |
| GTATGTAA | 0.288 |
| CATATAAG | 0.21 |
| CGTTCGTA | 0.0244 |
| CCTGTGCG | -0.0525 |
| CAACATGG | 0.171 |
| AAAACACG | 0.193 |
| TAACTATA | 0.259 |
| CGCATGCC | 0.141 |
| GAGCATGA | 0.205 |
| CGCATGCG | 0.277 |
| AGCATGCT | 0.165 |
| CAACCACG | 0.301 |
| TCACATGA | 0.229 |
| CAACTATA | 0.119 |
| CTATGTAA | -0.0284 |
| GGCATCCA | -0.0611 |
| CCCTCCTC | -0.0364 |
| AAGCGTTG | -0.0943 |
| GATGTGCA | 0.052 |
| ACGGTCCA | -0.222 |
| CGCGGCAA | -0.139 |
| GGCATGCA | 0.0781 |
| CATCTCTA | -0.0266 |
| AAAGGCAA | 0.225 |
| AATACGGT | -0.059 |
| ACGGGATG | -0.083 |
| CTAGCGCC | -0.283 |
| CATGTGCC | 0.327 |
| GTGCCACA | -0.00257 |
| CCCCTGGC | -0.127 |
| AGCATGCG | 0.326 |
| AACCGTTC | -0.064 |
| GGCTGCCC | -0.212 |
| ATTAACAC | 0.247 |
